Molecular target: B*4001 (Homo sapiens, UniProt P01889, A65T/A93T/A95T/D138N/D98Y/E176V/E69K/N87E/Q56L/Q94N/R180L/S121R/S35A/S48T/T167S/V36M/W171L/Y33H/Y91S)
Test: biochemical
Assay type: binding
Ends that are not written are not given here.
Listing of recorded IC50 by entry.

sequence entry: SEMAEALKGM
result units: nM
IC50: 613
--
sequence entry: REWCFTGERN
result units: nM
IC50: 502
--
sequence entry: GEFRLRGEQR
result units: nM
IC50: 1410
--
sequence entry: REIPERSWNT
result units: nM
IC50: 1490

---

Target: A*1101 (Homo sapiens, UniProt P04439, A114D/D185E/E176A/F33Y/L180Q/S129P/T187R)
Experiment: biochemical
Assay type: binding
pIC50: −log10 of the molar value. Ends that are not written are not given here.
Listing of recorded pIC50 by entry.

sequence entry: GAMLFLISGK
pIC50: 7.37
--
sequence entry: MVSRLLLNR
pIC50: 7.30
--
sequence entry: TTKRDLGMSK
pIC50: 6.94
--
sequence entry: KSGAIKVLK
pIC50: 6.82

---

Target: B*3501 (Homo sapiens, UniProt P01889, A329T/A93T/A95T/C349S/D201E/D98Y/E176V/E187L/E204Q/E69T/I218V/K202T/L119I/Q94N/R155S/R180L/S121R/S35A/S48A/T118I/V127L/V306I/V36M/Y140S/Y91F)
Experiment: biochemical
Type: binding
pIC50: −log10 of the molar value. Ends that are not written are not given here.
assay endpoint: pIC50

sequence entry: WHYDQDHPY
assay endpoint: pIC50
data value: 5.12

---

Target: B*5801 (Homo sapiens, UniProt P01889, A329T/C349S/D201E/D98Y/E176V/E187L/E204Q/E69T/G107R/I218V/I90N/K202T/L105A/L119I/N104I/N87E/Q89R/Q94S/R106L/R155S/R180L/R86G/S101N/S121R/S35A/S48A/T118I/V127L/V306I/V36M/Y140S/Y91M)
Experiment: biochemical
Type: binding
Ends that are not written are not given here.
assay endpoint: IC50 (nM)

sequence entry: ATGPITTLW
assay endpoint: IC50
data value: 5

---

Target: A*0201 (Homo sapiens, UniProt P04439, D140Y/D185E/D98H/E176V/E277Q/G131W/G231S/I119V/I121R/I166T/I218V/L300P/L318F/N151K/N90K/P208A/P217A/Q86G/Q94H/R138H/R169H/T345S)
Test: biochemical
Type: binding
pIC50: −log10 of the molar value. Ends that are not written are not given here.

sequence entry: KVLNPYMPSV
pIC50: 8.10
//
sequence entry: LMMMLPATLA
pIC50: 7.85
//
sequence entry: TLMAMDLGEL
pIC50: 7.82
//
sequence entry: MMMLPATLA
pIC50: 7.55
